read-out: Monokine induced gamma interferon (MIG), CXCL9 (gene 4283); assay: BSK_hDFCGF_MIG: BioMAP Diversity Plus: hDFCGF Assay for Monokine induced gamma interferon (MIG) Biomarker Activity (AID 2283063); details: primary human foreskin fibroblasts; actives raise or lower the signal
The source made the active and inactive calls. Rule for the calls: active = hit-call score of the fitted dose curve at least 0.9, where 1 is the maximum; inactive = score below 0.9.
Choose the fitting class; nothing outside Y (active), N (inactive) is accepted.

compound=CCN(Cc1c(F)cccc1Cl)c1c([N+](=O)[O-])cc(C(F)(F)F)cc1[N+](=O)[O-] discrete_label=Y

Given CCC(O)=C1C(=O)CC(C(=O)O)CC1=O (configuration not stated) , state the outcome it received in this test.
N

In this assay, the call recorded for `O=C(O)c1ccccc1` was what?
N

====

read-out: Human Leukocyte Antigen - DR isotype (HLADR), HLA-DRA (gene 3122); experiment: BSK_BE3C_HLADR: BioMAP Diversity Plus: BE3C Assay for Human Leukocyte Antigen - DR isotype (HLADR) Biomarker Activity (AID 2283032); conditions: primary human bronchial epithelial cells; actives raise or lower the signal
The source made the active and inactive calls. Rule for the calls: active = hit-call score of the fitted dose curve at least 0.9, where 1 is the maximum; inactive = score below 0.9.
Field 'call' accepts active, inactive

Call for entry `CCSC(=O)N(CC(C)C)CC(C)C` :
inactive

Hi team, can someone confirm the assay call for `CCN(CC)C(=O)c1cccc(C)c1` ?
inactive

Please share the test call associated with `OB(O)O` .
inactive

====

assay: CCTE_Shafer_MEA_acute_firing_rate_mean: CCTE's Neural Acute Assay for Mean Firing Rate, Shafer Lab (AID 2284009);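 note: analyzed for loss of signal so actives lower firing rate relative to DMSO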
Activity calls are given as the source filed them. Rule for the calls: active = hit-call score of the fitted dose curve at least 0.9, where 1 is the maximum; inactive = score below 0.9.
Parameter call: string, one of true (1) (active), false (0) (inactive)

// known answers, use as guide
compound="CCCCC(CC)CN1C(=O)C2C3C=CC(C3)C2C1=O (stereo not drawn)" discrete_label="true (1)"
compound=O=C(Nc1ccc([N+](=O)[O-])cc1Cl)c1cc(Cl)ccc1O discrete_label="true (1)"
compound=CC(C)(c1ccc(O)cc1)c1ccc(O)cc1 discrete_label="true (1)"
compound=O=C(c1ccc(O)cc1O)c1ccc(O)cc1O discrete_label="false (0)"
compound=CC(C)(C)[C@@H](O)[C@@H](Cc1ccc(Cl)cc1)n1cncn1 discrete_label="false (0)"

Please let me know the test result on file for `CCNc1nc(N)nc(Cl)n1` .
false (0)

What did the test return for `Oc1ccc(C(c2ccc(O)cc2)C(Cl)(Cl)Cl)cc1` ?
true (1)

For `N#CSCSc1nc2ccccc2s1` , which call appears in the assay record?
false (0)

====

test: ATG_PPRE_CIS: Attagene CIS-FACTORIAL HepG2 Assay for human Peroxisome Proliferator-activated Response Element (PPRE) (AID 2282958); conditions: HepG2 PPRE cis-element reporter, Attagene transcription factor profiling; actives raise or lower the signal
The source made the active and inactive calls. The calls were made as follows: active = hit-call score of the fitted dose curve at least 0.9, where 1 is the maximum; inactive = score below 0.9.
Give one outcome, nothing more. List: active, inactive

compound=COC(=O)CSc1cc(N=c2sc(=O)n3n2CCCC3)c(F)cc1Cl discrete_label=active
compound=CCCCOCCOCCOCc1cc2c(cc1CCC)OCO2 discrete_label=inactive
compound="CCOC(=O)C(C)Oc1ccc(Oc2cnc3cc(Cl)ccc3n2)cc1 (stereo not drawn)" discrete_label=inactive
compound=CCCCOC(=O)[C@@H](C)Oc1ccc(Oc2ccc(C(F)(F)F)cn2)cc1 discrete_label=inactive
compound=COC(=O)c1cccc(C)c1S(=O)(=O)NC(=O)Nc1nc(OCC(F)(F)F)nc(N(C)C)n1 discrete_label=inactive
compound=CCCOC(=O)c1ccc(C(=O)OCCC)nc1 discrete_label=active
compound=CCOC(=O)NCCOc1ccc(Oc2ccccc2)cc1 discrete_label=active
compound=CCOC(=O)[C@H](C)Oc1ccc(Oc2nc3ccc(Cl)cc3o2)cc1 discrete_label=active
compound=CSC(=O)c1cccc2nnsc12 discrete_label=inactive
compound=O=C(Nc1ccc([N+](=O)[O-])cc1Cl)c1cc(Cl)ccc1O discrete_label=inactive

Given `C#CCOC(=O)[C@@H](C)Oc1ccc(Oc2ncc(Cl)cc2F)cc1` , state the outcome it received in this test.
active

Tell me the assay call for `COc1nc(C)nc(NC(=O)NS(=O)(=O)c2ccccc2OCCCl)n1` please.
inactive

Entry `CCN(Cc1c(F)cccc1Cl)c1c([N+](=O)[O-])cc(C(F)(F)F)cc1[N+](=O)[O-]` : call = ?
inactive

====

assay: CCTE_Mundy_HCI_Cortical_NOG_NeuronCount: CCTE's Neurite Outgrowth Assay in rat cortical cells for Neuron Count, Mundy Lab (AID 2284236);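 note: neurons counted by imaging betaIII-tubulin and Hoechst stained cortical cells; cells exposed to compound for about 48 hours before fixation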
Records with an inconclusive call do not appear. Activity calls are given as the source filed them. Rule for the calls: active = hit-call score of the fitted dose curve at least 0.9, where 1 is the maximum; inconclusive = response in the unintended direction; inactive = score below 0.9.
Reply using exactly one outcome from yes (1) (active), no (0) (inactive)

smiles=Cc1nn(C)c(Oc2ccccc2)c1C=NOCc1ccc(C(=O)OC(C)(C)C)cc1 discrete_label="yes (1)"

Kindly provide the recorded test outcome for the following molecule: `C#CCOC(=O)[C@@H](C)Oc1ccc(Oc2ncc(Cl)cc2F)cc1`
no (0)

Hi team, can someone confirm the assay call for `O=C(O)c1ccccc1` ?
no (0)

GET /call?item= `CC(C)(c1ccc(O)cc1)c1ccc(O)cc1` returns the recorded outcome of this test.
no (0)

// param item: `CCN(CC)C(=O)c1cccc(C)c1` ; yields the recorded call
no (0)

====

molecular target: Oxysterols receptor LXR-alpha (Homo sapiens) (UniProt Q13133); experiment: ATG_LXRa_TRANS: Attagene TRANS-FACTORIAL HepG2 Assay for human Liver X Receptor alpha (LXRa) (AID 2282980); conditions: HepG2 Attagene TRANS reporter, LXRa transactivation
Sequence (Q13133 whole entry, looked up): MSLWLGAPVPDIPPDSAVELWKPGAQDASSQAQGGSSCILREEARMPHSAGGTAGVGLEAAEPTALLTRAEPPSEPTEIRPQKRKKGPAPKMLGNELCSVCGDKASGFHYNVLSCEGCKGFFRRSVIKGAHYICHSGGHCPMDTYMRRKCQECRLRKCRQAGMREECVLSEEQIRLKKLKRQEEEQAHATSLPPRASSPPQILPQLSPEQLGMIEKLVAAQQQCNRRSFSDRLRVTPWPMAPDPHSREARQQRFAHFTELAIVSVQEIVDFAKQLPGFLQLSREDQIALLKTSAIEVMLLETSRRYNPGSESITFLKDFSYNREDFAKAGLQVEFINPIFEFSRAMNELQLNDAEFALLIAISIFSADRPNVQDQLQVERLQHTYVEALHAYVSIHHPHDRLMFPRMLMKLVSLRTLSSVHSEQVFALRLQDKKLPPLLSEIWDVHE
Results filed as inconclusive are left out. Calls of active or inactive are those of the source. The calls were made as follows: active = hit-call score of the fitted dose curve at least 0.9, where 1 is the maximum; inconclusive = response in the unintended direction; inactive = score below 0.9.
Select the correct class. Options are active, inactive and nothing else.

Please review the entries below; each comes with its answer.
molecule=COc1nc(C)nc(NC(=O)NS(=O)(=O)c2ccccc2OCCCl)n1 discrete_label=active
molecule=O=C(Nc1ccc([N+](=O)[O-])cc1Cl)c1cc(Cl)ccc1O discrete_label=inactive
molecule=CCCCOC(=O)[C@@H](C)Oc1ccc(Oc2ccc(C(F)(F)F)cn2)cc1 discrete_label=inactive
molecule=CCNc1nc(N)nc(Cl)n1 discrete_label=inactive
molecule="CCCCC(CC)CN1C(=O)C2C3C=CC(C3)C2C1=O (centres undefined)" discrete_label=inactive
molecule=COC(=O)c1ccc(CNS(C)(=O)=O)cc1S(=O)(=O)NC(=O)Nc1nc(OC)cc(OC)n1 discrete_label=inactive

I'd appreciate the recorded outcome for `O=C(c1ccc(O)cc1O)c1ccc(O)cc1O` from this test.
inactive

Assay outcome for `C[C@]12C[C@H](O)[C@H]3[C@@H](CCC4=CC(=O)CC[C@@]43C)[C@@H]1CC[C@@H]2C(=O)CO` : what was it?
inactive

Please let me know the test result on file for C[C@]12CC[C@@H]3c4ccc(O)cc4C[C@@H](CCCCCCCCCS(=O)CCCC(F)(F)C(F)(F)F)[C@H]3[C@@H]1CC[C@@H]2O (some centres undefined) .
inactive

Kindly provide the recorded test outcome for the following molecule: CCCCOC(=O)C(C)Oc1ccc(Oc2ccc(C(F)(F)F)cn2)cc1 (centres undefined)
inactive

# lookup: test call for `CCN(CC)C(=O)c1cccc(C)c1`
inactive

Just curious, what result did CCOC(=O)C(C)Oc1ccc(Oc2cnc3cc(Cl)ccc3n2)cc1 (centres undefined) get here?
inactive

Recorded test outcome, item `CCCCCOC(=O)COc1cc(N2C(=O)C3=C(CCCC3)C2=O)c(F)cc1Cl`
inactive

Per the assay record, what outcome was assigned to `CCCOC(=O)c1ccc(C(=O)OCCC)nc1` ?
inactive

====

read-out: cysteine-aspartic acid protease (CASP8), CASP8 (gene 841); experiment: LTEA_HepaRG_CASP8: Life Technologies and Expression Analysis (LTEA) Assay for cysteine-aspartic acid protease (CASP8) using HepaRG (AID 2283480); conditions: mRNA level, 48 h; actives raise or lower the signal
Calls of active or inactive are those of the source. How the source made its calls: active means hit-call score of the fitted dose curve at least 0.9, where 1 is the maximum; inactive means score below 0.9.
Pick from active, inactive when you respond.

compound=CCN(Cc1c(F)cccc1Cl)c1c([N+](=O)[O-])cc(C(F)(F)F)cc1[N+](=O)[O-] discrete_label=inactive
compound=CCOC(=O)COc1cc(-n2ncc(C(F)(F)F)c(C)c2=O)c(F)cc1Cl discrete_label=inactive
compound=OB(O)O discrete_label=inactive
compound=O=C(c1ccccc1)C1CCCCC1 discrete_label=inactive
compound="CC1(C)C(C=C(Cl)Cl)C1C(=O)OCc1cccc(Oc2ccccc2)c1 (centres undefined)" discrete_label=inactive
compound=O=C(Nc1ccc([N+](=O)[O-])cc1Cl)c1cc(Cl)ccc1O discrete_label=active
compound=CCCOC(=O)c1ccc(C(=O)OCCC)nc1 discrete_label=inactive
compound=CCCCOC(=O)[C@@H](C)Oc1ccc(Oc2ccc(C(F)(F)F)cn2)cc1 discrete_label=inactive

Next up:
Which outcome was assigned to `CCSC(=O)N(CC(C)C)CC(C)C` in this test?
inactive

====

experiment: ATG_MRE_CIS: Attagene CIS-FACTORIAL HepG2 Assay for human Metal Responsive Element (MRE) (AID 2282954); settings: HepG2 MRE cis-reporter transcription, Attagene multiplex; actives raise or lower the signal
Calls of active or inactive are those of the source. How the source made its calls: active means hit-call score of the fitted dose curve at least 0.9, where 1 is the maximum; inactive means score below 0.9.
Select the matching outcome among active, inactive

compound=CCSC(=O)N(CC(C)C)CC(C)C discrete_label=inactive

Which outcome was assigned to `O=C(c1ccc(O)cc1O)c1ccc(O)cc1O` in this test?
inactive

Any idea what this test logged for `CCCOC(=O)c1ccc(C(=O)OCCC)nc1` ?
inactive

Recorded test call requested for `CSC(=O)c1cccc2nnsc12`
inactive

What did the test return for CCCCC(CC)COC(=O)c1ccccc1C(=O)O (stereo not given) ?
inactive

State the result this test recorded for CCCCOC(=O)C(C)Oc1ccc(Oc2ccc(C(F)(F)F)cn2)cc1 (stereo not given) .
inactive

What call does the record list for `COC(=O)c1ccccc1S(=O)(=O)NC(=O)Nc1nc(OC(F)F)cc(OC(F)F)n1` ?
inactive
